Recorded measurements of HC10, one per entry
- Test system: mouse red blood cells (RBCs)
- assayProtocol: Hemolysis study
- Type: cell-based
- conditionDetails: oligomer concentration giving 10% hemolysis, 1 h, 37° C.
experimentalReadout: HC10

compoundStructure	testResult
CCCCCCCC[n+]1ccn(Cc2ccc(Cn3cc[n+](Cc4ccc(C[N+]56CC[N+](C/C=C/C[N+]78CC[N+](Cc9ccc(C[n+]%10ccn(Cc%11ccc(Cn%12cc[n+](CCCCCCCC)c%12)cc%11)c%10)cc9)(CC7)CC8)(CC5)CC6)cc4)c3)cc2)c1.[Br-].[Br-].[Br-].[Br-].[Br-].[Br-].[Br-].[Br-]	>2000 µg/mL
CCCCCCCC[N+]12CC[N+](C/C=C/C[N+]34CC[N+](CCCCCCCC)(CC3)CC4)(CC1)CC2.[Br-].[Br-].[Br-].[Br-]	>2000 µg/mL
